Catalogue of Ki values
# measurementTarget: ICE (Homo sapiens)
# Sequence (P29466 120-297 limits assumed): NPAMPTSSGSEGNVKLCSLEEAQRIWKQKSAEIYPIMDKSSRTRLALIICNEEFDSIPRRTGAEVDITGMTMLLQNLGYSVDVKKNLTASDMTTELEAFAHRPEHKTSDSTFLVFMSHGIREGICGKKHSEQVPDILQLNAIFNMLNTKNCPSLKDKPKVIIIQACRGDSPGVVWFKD
# Sequence (P29466 317-404 limits assumed): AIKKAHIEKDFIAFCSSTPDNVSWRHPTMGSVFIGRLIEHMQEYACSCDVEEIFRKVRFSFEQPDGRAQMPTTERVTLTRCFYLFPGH
# experimentalProtocol: Enzyme assay with UV-visible substrate (Succinyl-Tyr-Val-Ala-Asp-pNitroanilide)
# Type: biochemical
# protocolConditions: Example 6 table
quantityMeasured: Ki

INSERT INTO results (compound, readoutvalue) VALUES
  ('CC(C)[C@H](NC(=O)OCc1ccccc1)C(=O)N[C@@H](C)C(=O)N[C@@H](CC(=O)O)C(=O)c1ncc(-c2ccccc2Cl)o1', '260 nM'),
  ('COc1cccc2nc(C(=O)[C@H](CC(=O)O)NC(=O)[C@@H]3CCc4ncc(NC(=O)CCc5ccccc5)c(=O)n43)oc12 [Compound 102b]', '290 nM'),
  ('CC(=O)N[C@@H](Cc1ccc(O)cc1)C(=O)N[C@H](C(=O)N1CCC[C@H]1C(=O)N[C@@H](CC(=O)O)C(=O)c1ncc(-c2c(Cl)cccc2Cl)o1)C(C)C', '23 nM'),
  ('O=C[C@H](CC(=O)O)NC(=O)CN1CCCC[C@H](NC(=O)CCc2ccc(O)cc2)C1=O', '3800 nM'),
  ('O=C[C@H](CC(=O)O)NC(=O)[C@@H]1CCc2ncc(NC(=O)CCc3ccccc3)c(=O)n21', '535 nM'),
  ('C[C@@H](C(=O)N[C@@H](CC(=O)O)C(=O)c1ncc(-c2c(Cl)cccc2Cl)o1)n1cccc(NC(=O)CCc2ccccc2)c1=O', '590 nM');
